B1: Protein PTHB1 (Homo sapiens), Q3SYG4 (parent)
chain: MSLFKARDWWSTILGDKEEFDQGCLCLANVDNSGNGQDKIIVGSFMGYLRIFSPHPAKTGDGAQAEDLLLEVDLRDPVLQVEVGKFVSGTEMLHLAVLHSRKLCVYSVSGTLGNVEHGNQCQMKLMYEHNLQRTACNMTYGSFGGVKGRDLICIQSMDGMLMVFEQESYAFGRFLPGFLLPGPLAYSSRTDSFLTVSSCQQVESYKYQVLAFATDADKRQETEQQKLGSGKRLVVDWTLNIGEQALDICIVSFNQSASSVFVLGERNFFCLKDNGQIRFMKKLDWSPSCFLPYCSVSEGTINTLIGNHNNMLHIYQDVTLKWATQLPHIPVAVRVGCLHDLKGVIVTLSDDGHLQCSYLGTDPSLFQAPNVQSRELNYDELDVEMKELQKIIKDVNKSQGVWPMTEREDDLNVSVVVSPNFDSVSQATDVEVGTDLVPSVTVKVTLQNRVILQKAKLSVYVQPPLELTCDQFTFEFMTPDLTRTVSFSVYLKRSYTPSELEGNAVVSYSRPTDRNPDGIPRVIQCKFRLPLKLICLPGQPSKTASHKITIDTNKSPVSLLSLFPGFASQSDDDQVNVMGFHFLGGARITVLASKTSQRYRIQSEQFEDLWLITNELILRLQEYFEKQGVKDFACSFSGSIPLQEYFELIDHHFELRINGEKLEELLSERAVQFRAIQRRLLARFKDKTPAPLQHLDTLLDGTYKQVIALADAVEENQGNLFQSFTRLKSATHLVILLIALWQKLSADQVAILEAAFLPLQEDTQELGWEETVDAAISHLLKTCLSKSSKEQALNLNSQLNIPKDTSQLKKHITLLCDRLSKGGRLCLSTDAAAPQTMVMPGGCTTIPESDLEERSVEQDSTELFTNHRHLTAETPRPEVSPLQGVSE
partner: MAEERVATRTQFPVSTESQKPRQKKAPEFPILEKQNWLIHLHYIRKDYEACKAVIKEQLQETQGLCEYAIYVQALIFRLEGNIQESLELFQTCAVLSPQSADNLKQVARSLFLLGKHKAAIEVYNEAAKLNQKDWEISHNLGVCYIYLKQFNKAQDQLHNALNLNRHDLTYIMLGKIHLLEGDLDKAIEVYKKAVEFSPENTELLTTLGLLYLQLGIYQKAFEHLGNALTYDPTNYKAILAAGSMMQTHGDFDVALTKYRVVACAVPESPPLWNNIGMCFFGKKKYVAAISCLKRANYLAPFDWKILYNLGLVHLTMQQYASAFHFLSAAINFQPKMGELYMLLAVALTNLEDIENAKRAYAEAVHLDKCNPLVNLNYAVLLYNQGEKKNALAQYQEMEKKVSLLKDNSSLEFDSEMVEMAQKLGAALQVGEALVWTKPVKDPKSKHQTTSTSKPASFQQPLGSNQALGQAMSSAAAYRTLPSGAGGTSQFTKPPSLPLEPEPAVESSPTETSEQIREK

Variants of: B1
Details: with bbs4_human BBS4, Q96RK4
MEASURED_METRIC: effect of a mutation on the interaction

Sample answers from the record:
- MUTATION_CODE: "L736K"
  effect of a mutation on the interaction: "with no effect"
- MUTATION_CODE: "S568K"
  effect of a mutation on the interaction: "with no effect"
- MUTATION_CODE: "R656E"
  effect of a mutation on the interaction: "with no effect"
- MUTATION_CODE: "I707E"
  effect of a mutation on the interaction: "with no effect"

query: Which effect of a mutation on the interaction reading was recorded for the variant P520A ?
result: with no effect

query: Report effect of a mutation on the interaction for K809A please.
result: with no effect

query: Fill blank: measured effect of a mutation on the interaction of the variant S729A is ____.
result: with no effect

query: What measured effect of a mutation on the interaction goes with G718E ?
result: with no effect
